Where do these numbers come from? They come from patent US9550775B2.

target_or_system: hNav1.7 (Homo sapiens (Human), UniProt Q15858)
Sequence (Q15858 other isoform, or with tags, fused parts or gaps): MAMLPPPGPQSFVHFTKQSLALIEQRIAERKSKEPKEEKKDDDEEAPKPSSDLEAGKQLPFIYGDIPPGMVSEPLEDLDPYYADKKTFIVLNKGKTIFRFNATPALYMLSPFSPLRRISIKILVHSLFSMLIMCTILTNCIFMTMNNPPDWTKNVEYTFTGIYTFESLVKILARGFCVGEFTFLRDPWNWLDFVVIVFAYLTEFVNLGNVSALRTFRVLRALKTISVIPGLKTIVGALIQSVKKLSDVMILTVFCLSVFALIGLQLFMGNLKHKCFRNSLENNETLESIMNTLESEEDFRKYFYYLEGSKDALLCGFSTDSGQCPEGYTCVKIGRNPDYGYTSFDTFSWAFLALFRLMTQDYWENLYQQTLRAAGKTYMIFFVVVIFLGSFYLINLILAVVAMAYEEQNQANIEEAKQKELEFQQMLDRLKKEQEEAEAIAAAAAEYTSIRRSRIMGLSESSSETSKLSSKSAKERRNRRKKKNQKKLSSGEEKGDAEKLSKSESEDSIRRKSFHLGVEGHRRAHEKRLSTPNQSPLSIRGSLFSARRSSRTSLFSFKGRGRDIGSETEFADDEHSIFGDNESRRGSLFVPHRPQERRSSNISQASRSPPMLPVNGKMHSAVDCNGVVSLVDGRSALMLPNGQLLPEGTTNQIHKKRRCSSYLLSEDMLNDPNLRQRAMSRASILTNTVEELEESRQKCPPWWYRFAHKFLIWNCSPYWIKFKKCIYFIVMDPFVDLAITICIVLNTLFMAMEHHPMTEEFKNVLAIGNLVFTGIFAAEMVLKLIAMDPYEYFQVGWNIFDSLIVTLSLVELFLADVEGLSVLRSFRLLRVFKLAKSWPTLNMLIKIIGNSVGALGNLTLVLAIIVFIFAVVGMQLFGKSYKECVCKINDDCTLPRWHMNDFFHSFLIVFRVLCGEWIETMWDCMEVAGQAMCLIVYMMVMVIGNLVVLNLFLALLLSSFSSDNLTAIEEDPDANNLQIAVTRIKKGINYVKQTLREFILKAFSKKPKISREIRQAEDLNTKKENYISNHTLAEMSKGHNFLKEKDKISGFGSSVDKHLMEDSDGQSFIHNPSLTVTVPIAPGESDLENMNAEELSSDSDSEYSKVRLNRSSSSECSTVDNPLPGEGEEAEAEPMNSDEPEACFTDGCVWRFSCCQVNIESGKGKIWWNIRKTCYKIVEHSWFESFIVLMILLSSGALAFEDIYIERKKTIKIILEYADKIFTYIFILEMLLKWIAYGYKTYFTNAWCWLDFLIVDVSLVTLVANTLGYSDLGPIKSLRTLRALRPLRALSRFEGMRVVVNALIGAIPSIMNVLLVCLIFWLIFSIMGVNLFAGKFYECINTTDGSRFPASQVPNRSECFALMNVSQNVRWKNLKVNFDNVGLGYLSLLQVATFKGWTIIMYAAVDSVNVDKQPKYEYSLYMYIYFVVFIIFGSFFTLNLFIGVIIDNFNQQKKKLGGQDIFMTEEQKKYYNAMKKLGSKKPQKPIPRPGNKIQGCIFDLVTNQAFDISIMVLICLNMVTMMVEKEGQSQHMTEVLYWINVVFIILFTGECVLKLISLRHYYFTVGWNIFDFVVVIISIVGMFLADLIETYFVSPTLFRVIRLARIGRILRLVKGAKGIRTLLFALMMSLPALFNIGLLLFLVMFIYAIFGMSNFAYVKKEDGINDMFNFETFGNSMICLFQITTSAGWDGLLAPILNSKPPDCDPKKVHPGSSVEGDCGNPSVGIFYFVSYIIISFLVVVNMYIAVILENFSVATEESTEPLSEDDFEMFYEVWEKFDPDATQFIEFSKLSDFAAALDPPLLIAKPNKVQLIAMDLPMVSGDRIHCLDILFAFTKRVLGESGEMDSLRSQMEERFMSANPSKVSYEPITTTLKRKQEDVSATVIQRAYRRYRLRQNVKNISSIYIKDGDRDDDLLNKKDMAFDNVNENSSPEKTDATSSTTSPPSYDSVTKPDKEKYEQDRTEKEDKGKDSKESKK
Sequence (Q07699 19-218 partner): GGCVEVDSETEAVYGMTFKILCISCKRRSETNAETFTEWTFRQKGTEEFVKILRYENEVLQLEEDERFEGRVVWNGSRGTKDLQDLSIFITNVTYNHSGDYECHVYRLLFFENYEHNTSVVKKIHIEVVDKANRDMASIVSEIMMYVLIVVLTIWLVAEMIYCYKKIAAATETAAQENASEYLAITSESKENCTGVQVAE
experiment_description: Tritiated sulfonamide competitive binding to membranes from cells expressing hNav1.7 and the β1 subunit
study_conditions: 100 pM [3H]compound, 18 h, room temperature; inactivated state of NaV1.7 membrane binding; read-out: NaV1.7 Ligand Binding Assay (IC50)
measurement_type: pIC50
Answers are plain numbers, as −log10 of the molar value.

# annotated cases, reported pIC50 shown
The molecule CCc1cn2c(NS(=O)(=O)N3CC(F)C3)nnc2cc1OCC12CC3CC(CC(C3)C1)C2 [Example 15] showed pIC50 equal to 6.86

The molecule CS(=O)(=O)Nc1nnc2cc(OC[C@H]3CC[C@H](C)CC3)c(Br)cn12 [Example 32] showed pIC50 equal to 7.06

The molecule CS(=O)(=O)Nc1nnc2cc(O[C@@H]3CCCN(Cc4ccc(F)cc4Cl)C3)c(C3CC3)cn12 [Example 112] showed pIC50 equal to 6.89

The molecule O=S(=O)(Nc1nnc2cc(OC3C4CC5CC(C4)CC3C5)c(C3CC3)cn12)C1CC1 (centres unmarked) [Example 79] showed pIC50 equal to 7.18

Shifting focus to the molecule that follows.
The molecule CS(=O)(=O)Nc1nnc2cc(OC[C@H]3CC[C@H](C)CC3)c(Br)cn12 [Example 87] showed pIC50 equal to 7.06

---

Answer each item with its documented IC50.
target_or_system: UniProt:Q15858
experiment_description: Tritiated sulfonamide competitive binding to membranes from cells expressing hNav1.7 and the β1 subunit
study_conditions: 100 pM [3H]compound, 18 h, room temperature; inactivated state of NaV1.7 membrane binding; read-out: NaV1.7 Ligand Binding Assay (IC50)
Answers are plain numbers, in nM.

# annotated cases, reported IC50 shown
The compound CC1(C)[C@H]2CC[C@H](COc3cc4nnc(NS(=O)(=O)N5CCC5)n4cc3C3CC3)[C@@H]1C2 [Example 30] showed IC50 equal to 6.75

The compound CCc1cn2c(NS(=O)(=O)N3CC(F)C3)nnc2cc1OCC12CC3CC(CC(C3)C1)C2 [Example 70] showed IC50 equal to 140

Quick batch: IC50 for everything below.
1. O=S(=O)(Nc1nnc2cc(CN3CCC(Oc4cc(Cl)cc(Cl)c4)CC3)c(C3CC3)cn12)C1CC1
2. CC1(S(=O)(=O)Nc2nnc3cc(COc4cc(Cl)cc(OC(F)(F)F)c4)c(C4CC4)cn23)CC1 [Example 49]
3. C[C@@H](c1cc(Cl)cc(Cl)c1)N1CCC(COc2cc3nnc(NS(=O)(=O)C4CC4)n3cc2C2CC2)CC1
4. CC1(COc2cc3nnc(NS(C)(=O)=O)n3cc2C2CC2)CCN(Cc2cc(Cl)cc(Cl)c2)CC1
5. CS(=O)(=O)Nc1nnc2cc(OCCC34CC5CC(CC(C5)C3)C4)c(C3CC3)cn12 [Example 76]
6. Cc1cc(Cl)cc(OCc2cc3nnc(NS(=O)(=O)C4CC4)n3cc2C2CC2)c1 [Example 103]
7. C[C@@H](c1cc(Cl)cc(Cl)c1)N1CCC(C)(COc2cc3nnc(NS(C)(=O)=O)n3cc2C2CC2)CC1

[320, 3.94, 12, 12, 9, 6, 13]

---

target_or_system: hNav1.7 (Homo sapiens (Human), UniProt Q15858)
experiment_description: Tritiated sulfonamide competitive binding to membranes from cells expressing hNav1.7 and the β1 subunit;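 also: displacement of the tritiated ligand from recombinant cell membranes, read by liquid scintillation counting of filter-bound radioactivity, nonspecific binding defined with 1 µM unlabelled compound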
study_conditions: 100 pM [3H]compound, 18 h, room temperature; inactivated state of NaV1.7 membrane binding; read-out: NaV1.7 Ligand Binding Assay (IC50)
pIC50: −log10 of the molar value.
Assign y to entries whose pIC50 meets or exceeds 8; assign n to the rest.

Has O=S(=O)(Nc1nnc2cc(COc3ccc(Cl)c(Cl)c3)c(C3CC3)cn12)N1CCC1 [Example 96] a recorded pIC50 greater than or equal to 8? n

Has CS(=O)(=O)Nc1nnc2cc(COc3cc(Cl)cc(OC(F)(F)F)c3)c(C3CC3)cn12 [Example 43] a recorded pIC50 greater than or equal to 8? y

Has O=S(=O)(Nc1nnc2cc(OC3CCC4(CCCCC4)CC3)c(C3CC3)cn12)C1CC1 [Example 90] a recorded pIC50 greater than or equal to 8? n

Below: the item to evaluate.
Has CS(=O)(=O)Nc1nnc2cc(OC[C@H]3CC[C@H](C)CC3)c(C3CC3)cn12 [Example 33] a recorded pIC50 greater than or equal to 8? n

---

target_or_system: hNav1.7 (Homo sapiens (Human))
experiment_description: Tritiated sulfonamide competitive binding to membranes from cells expressing hNav1.7 and the β1 subunit
study_conditions: 100 pM [3H]compound, 18 h, room temperature; inactivated state of NaV1.7 membrane binding; read-out: NaV1.7 Ligand Binding Assay (IC50)
measurement_type: pIC50
One number for each entry, as −log10 of the molar value.

# annotated cases, reported pIC50 shown
Assay hNav1.7 (Homo sapiens (Human)), sample Cc1cc(Cl)cc(OCc2cc3nnc(NS(=O)(=O)C4CC4)n3cc2C2CC2)c1 [Example 48] , pIC50 read: 8.20

Assay hNav1.7 (Homo sapiens (Human)), sample CCS(=O)(=O)Nc1nnc2cc(OCC34CC5CC(CC(C5)C3)C4)c(C3CC3)cn12 [Example 17] , pIC50 read: 8.37

Assay hNav1.7 (Homo sapiens (Human)), sample CS(=O)(=O)Nc1nnc2cc(OC[C@H]3CC[C@H](C)CC3)c(C3CC3)cn12 [Example 88] , pIC50 read: 7.74

Assay hNav1.7 (Homo sapiens (Human)), sample CS(=O)(=O)Nc1nnc2cc(OCC3CC4C5CCC(C5)C4C3)c(C3CC3)cn12 (centres unmarked) [Example 80] , pIC50 read: 8.30

Assay hNav1.7 (Homo sapiens (Human)), sample CS(=O)(=O)Nc1nnc2cc(OC[C@H]3CC[C@H](C(F)(F)F)CC3)c(C3CC3)cn12 [Example 13] , pIC50 read: 7.65

Quick batch: pIC50 for everything below.
1. C=Cc1cn2c(NS(C)(=O)=O)nnc2cc1OCC1(C)CCCCC1 [Example 7]
2. O=S(=O)(Nc1nnc2cc(COc3ccc(Cl)c(Cl)c3)c(C3CC3)cn12)C1CC1 [Example 94]
3. CCc1cn2c(NS(=O)(=O)N3CCC3)nnc2cc1OCC12CC3CC(CC(C3)C1)C2
4. CS(=O)(=O)Nc1nnc2cc(OCC3CCCCC3)c(Br)cn12 [Example 61]

1. 7.19
2. 8.15
3. 7.51
4. 7.05

Quick batch: pIC50 for everything below.
1. O=S(=O)(Nc1nnc2cc(OCC34CC5CC(CC(C5)C3)C4)c(C3CC3)cn12)N1CCC1
2. CC1(S(=O)(=O)Nc2nnc3cc(OCC45CC6CC(CC(C6)C4)C5)c(C4CC4)cn23)CC1 [Example 19]

[8.05, 8.14]
